- protocol: Pharmacokinetic study
- Assay type: in vivo
- condition.description: SD, rat, plasma, iv, 1 mg/kg, SD rats, i.v. 1 mg/kg; read-out: Vz
measured.property: Vd
Reply with the number and its unit after it.

Q: Please report the recorded Vd for CN(C)Cc1cccc(Nc2ncc(Cl)c(-c3csc(C(=O)NN4CCOCC4)c3)n2)c1 .
Ans: 20.2 L/kg

* * *

- measured.on: ERK2 (Homo sapiens)
- protocol: ADP-Glo kinase assay
- Assay type: biochemical
- condition.description: read-out: Enzyme inhibitory activity (500 nM, %) ERK2
Task for the reader: assign each of the following compounds its reported inhibition at 0.5 µM.
Report the figure in % without appending any unit label.

Q: What is its inhibition at 0.5 µM for ERK2 (Homo sapiens)? Entry: CN(C)Cc1cccc(Nc2ncc(Cl)c(-c3csc(C(=O)NN4CCOCC4)c3)n2)c1
Ans: 93.2

Q: Consider next the compound COc1cc(N2CCN(C)CC2)ccc1NC(=O)c1cc(-c2nc(Nc3ccnn3C)ncc2Cl)cs1 in the same way.
Ans: 64.2

Q: Consider next the compound CN1CCN(NC(=O)c2cc(-c3nc(Nc4ccnn4C)ncc3Cl)cs2)CC1 in the same way.
Ans: 97.4

Q: Consider next the compound Cc1cc(NC(=O)c2cc(-c3nc(Nc4cccc(CN(C)C)c4)ncc3Cl)cs2)ccn1 [18j] in the same way.
Ans: 5.97

* * *

- System: MDA-MB-231 cells
- protocol: MTT cell viability assay
- Assay type: cell-based
- condition.description: 10 μM
measured.property: Anti-proliferative activity (10 μM, %) MDA-MB-231
Reply with the number and its unit after it.

Q: Please report the recorded Anti-proliferative activity (10 μM, %) MDA-MB-231 for CN(C)Cc1cccc(Nc2ncc(Cl)c(-c3csc(C(=O)NN4CCN(C)CC4)c3)n2)c1 [18n] .
Ans: 54.82 ± 1.21%

Q: Consider next the compound Cn1nccc1Nc1ncc(Cl)c(-c2csc(C(=O)Nc3cccc(N)c3)c2)n1 [6p] in the same way.
Ans: 33.51 ± 0.32%

Q: Consider next the compound COc1ccc(NC(=O)c2cc(-c3nc(Nc4ccnn4C)ncc3Cl)cs2)cc1OC [6ag] in the same way.
Ans: 33.67 ± 0.08%

Q: Consider next the compound CN1CCN(NC(=O)c2cc(-c3nc(Nc4ccnn4C)ncc3Cl)cs2)CC1 [6a] in the same way.
Ans: 15.06 ± 0.35%

Q: Consider next the compound COc1ccc(NC(=O)c2cc(-c3nc(Nc4ccn(C)n4)ncc3Cl)cs2)cc1 [9a] in the same way.
Ans: 1.23 ± 1.20%

Q: Consider next the compound CN(C)Cc1cccc(Nc2ncc(Cl)c(-c3csc(C(=O)Nc4ccnn4C)c3)n2)c1 [18k] in the same way.
Ans: 39.77 ± 0.31%

Q: Consider next the compound Cn1nccc1Nc1ncc(Cl)c(-c2csc(C(=O)Nc3cccc(Br)c3)c2)n1 [6l] in the same way.
Ans: 33.90 ± 1.22%

Q: Consider next the compound Cn1nccc1Nc1ncc(Cl)c(-c2csc(C(=O)Nc3ccc(C(F)(F)F)cc3)c2)n1 [6y] in the same way.
Ans: 8.87 ± 1.11%

Q: Consider next the compound Cn1nccc1Nc1ncc(Cl)c(-c2csc(C(=O)NC3CCSCC3)c2)n1 [6d] in the same way.
Ans: 37.21 ± 0.72%

* * *

- measured.on: UniProt:Q13164
- Sequence (Q13164 whole entry): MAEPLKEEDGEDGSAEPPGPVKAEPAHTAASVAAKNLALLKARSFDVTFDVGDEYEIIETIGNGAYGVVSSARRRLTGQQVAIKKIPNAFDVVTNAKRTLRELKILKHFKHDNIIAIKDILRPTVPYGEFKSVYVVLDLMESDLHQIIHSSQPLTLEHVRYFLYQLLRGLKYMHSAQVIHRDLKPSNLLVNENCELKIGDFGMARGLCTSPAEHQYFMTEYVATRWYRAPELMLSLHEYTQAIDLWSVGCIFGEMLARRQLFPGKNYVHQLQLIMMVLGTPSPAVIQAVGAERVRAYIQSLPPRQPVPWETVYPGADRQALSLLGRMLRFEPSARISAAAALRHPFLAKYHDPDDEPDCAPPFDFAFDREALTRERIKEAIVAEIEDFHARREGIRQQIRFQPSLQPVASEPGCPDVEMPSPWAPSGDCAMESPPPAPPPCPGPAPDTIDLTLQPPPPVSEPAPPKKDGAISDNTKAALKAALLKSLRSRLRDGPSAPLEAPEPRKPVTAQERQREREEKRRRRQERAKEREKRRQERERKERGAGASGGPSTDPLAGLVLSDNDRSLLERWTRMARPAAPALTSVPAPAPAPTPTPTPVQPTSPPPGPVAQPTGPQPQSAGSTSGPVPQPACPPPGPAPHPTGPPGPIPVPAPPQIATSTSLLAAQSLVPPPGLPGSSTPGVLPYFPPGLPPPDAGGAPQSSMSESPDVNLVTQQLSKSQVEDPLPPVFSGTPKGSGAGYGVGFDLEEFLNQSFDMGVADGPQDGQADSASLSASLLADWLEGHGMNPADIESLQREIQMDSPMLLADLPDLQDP
- protocol: ADP-Glo kinase assay
- Format: biochemical
- condition.description: 500 nM
Answer false if Enzyme inhibitory activity (500 nM, %) ERK5 is under 20%, and true if it is 20% or more.

Q: Has CN(C)Cc1cccc(Nc2ncc(Cl)c(-c3csc(C(=O)Nc4ccncn4)c3)n2)c1 [18i] a recorded Enzyme inhibitory activity (500 nM, %) ERK5 greater than or equal to 20%?
Ans: true

Q: Consider next the compound Cn1nccc1Nc1ncc(Cl)c(-c2csc(C(=O)Nc3cccc(OC(F)(F)F)c3)c2)n1 in the same way.
Ans: false

Q: Consider next the compound COc1ccc(NC(=O)c2cc(-c3nc(Nc4c(C)nn(C)c4C)ncc3Cl)cs2)cc1 in the same way.
Ans: true

Q: Consider next the compound COc1ccc(NC(=O)c2cc(-c3nc(Nc4ccnn4C)ncc3Cl)cs2)cc1OC in the same way.
Ans: true

Q: Consider next the compound COc1ccc(NC(=O)c2cc(-c3nc(Nc4ccccc4)ncc3Cl)cs2)cc1 in the same way.
Ans: true

* * *

- measured.on: ERK2 (Homo sapiens, UniProt P28482)
- Sequence (P28482 whole entry): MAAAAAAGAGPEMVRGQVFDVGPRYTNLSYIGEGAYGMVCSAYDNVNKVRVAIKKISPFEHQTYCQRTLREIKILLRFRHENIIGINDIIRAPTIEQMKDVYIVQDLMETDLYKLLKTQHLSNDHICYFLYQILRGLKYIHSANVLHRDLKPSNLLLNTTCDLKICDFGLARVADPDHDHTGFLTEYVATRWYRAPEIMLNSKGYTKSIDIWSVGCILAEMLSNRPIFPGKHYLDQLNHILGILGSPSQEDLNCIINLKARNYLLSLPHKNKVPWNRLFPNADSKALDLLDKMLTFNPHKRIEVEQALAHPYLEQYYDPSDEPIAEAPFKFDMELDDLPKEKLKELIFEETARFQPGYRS
- protocol: ADP-Glo kinase assay
- Format: biochemical
- condition.description: 500 nM
Task for the reader: assign each of the following molecules its reported Enzyme inhibitory activity (500 nM, %) ERK2.
Reply with the number and its unit after it.

Q: Please report the recorded Enzyme inhibitory activity (500 nM, %) ERK2 for CN(C)Cc1cccc(Nc2ncc(Cl)c(-c3csc(C(=O)Nc4cccc(N(C)C)c4)c3)n2)c1 [18d] .
Ans: 23.97 ± 0.90%

Q: Consider next the molecule Cn1nccc1Nc1ncc(Cl)c(-c2csc(C(=O)Nc3cccc(Cl)c3)c2)n1 [6k] in the same way.
Ans: 57.85 ± 0.88%

Q: Consider next the molecule Cn1nccc1Nc1ncc(Cl)c(-c2csc(C(=O)Nc3cccc(C(F)(F)F)c3)c2)n1 [6m] in the same way.
Ans: 53.43 ± 0.43%
